Experiment: The drug is tested on Bacteroides uniformis strain: ATCC8492 for biotransformation. The drug concentrations were measured before and after a 12-h incubation by liquid-chromatography-coupled mass spectrometry (LC–MS)
Details: 2 µM
Readout label: Bacterial Biotransformation

The cases that follow already have their Bacterial Biotransformation on record.
Data request, read-out Bacterial Biotransformation, for COc1ccc(/C=C/C(=O)Nc2ccccc2C(=O)O)cc1OC
Compound NOT metabolized

Data request, read-out Bacterial Biotransformation, for C#C[C@]1(OC(C)=O)CC[C@H]2[C@@H]3CCC4=C/C(=N/O)CC[C@@H]4[C@H]3CC[C@@]21CC [NORGESTIMATE]
Compound metabolized

Data request, read-out Bacterial Biotransformation, for CN1CCN(CC/C=C2/c3ccccc3Sc3ccc(S(=O)(=O)N(C)C)cc32)CC1
Compound metabolized

Data request, read-out Bacterial Biotransformation, for CC(C)C[C@H]1C(=O)N2CCC[C@H]2[C@]2(O)O[C@](NC(=O)[C@@H]3C=C4c5cccc6[nH]c(Br)c(c56)C[C@H]4N(C)C3)(C(C)C)C(=O)N12.CS(=O)(=O)O [BROMOCRIPTINE MESYLATE]
Compound metabolized

Data request, read-out Bacterial Biotransformation, for OCCN1CCN(CCCN2c3ccccc3Sc3ccc(C(F)(F)F)cc32)CC1
Compound metabolized

Data request, read-out Bacterial Biotransformation, for CCCCCNC(=N)N/N=C/c1c[nH]c2ccc(OC)cc12.O=C(O)/C=C\C(=O)O [TEGASEROD MALEATE]
Compound NOT metabolized

***
Data request, read-out Bacterial Biotransformation, for CC1OC(OC2C(O)CC(OC3C(O)CC(OC4CCC5(C)C(CCC6C5CCC5(C)C(C7=CC(=O)OC7)CCC65O)C4)OC3C)OC2C)CC(O)C1O (configuration not stated)
Compound metabolized
